TARGET SYSTEM: human CDK7/cycH/MAT1 (Homo sapiens (Human), UniProt P50613)
Sequence (P50613 whole entry): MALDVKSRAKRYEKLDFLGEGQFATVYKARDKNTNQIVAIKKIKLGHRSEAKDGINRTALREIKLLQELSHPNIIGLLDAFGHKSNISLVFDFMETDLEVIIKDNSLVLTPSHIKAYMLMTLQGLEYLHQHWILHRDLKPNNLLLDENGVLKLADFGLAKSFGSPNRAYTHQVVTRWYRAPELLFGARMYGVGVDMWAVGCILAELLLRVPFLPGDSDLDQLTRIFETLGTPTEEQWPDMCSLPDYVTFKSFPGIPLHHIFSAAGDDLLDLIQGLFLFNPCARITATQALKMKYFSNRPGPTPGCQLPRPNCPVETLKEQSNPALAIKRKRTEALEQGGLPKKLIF
Sequence (P51946 whole entry partner): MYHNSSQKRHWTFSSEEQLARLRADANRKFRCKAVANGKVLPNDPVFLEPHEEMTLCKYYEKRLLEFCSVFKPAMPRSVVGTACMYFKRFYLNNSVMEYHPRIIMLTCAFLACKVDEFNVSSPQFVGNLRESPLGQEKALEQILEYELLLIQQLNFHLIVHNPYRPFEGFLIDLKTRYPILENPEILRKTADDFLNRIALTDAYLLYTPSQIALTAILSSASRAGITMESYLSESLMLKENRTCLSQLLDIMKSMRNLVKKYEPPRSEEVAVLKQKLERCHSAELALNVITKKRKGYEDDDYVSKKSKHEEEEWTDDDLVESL
Sequence (P51948 whole entry partner): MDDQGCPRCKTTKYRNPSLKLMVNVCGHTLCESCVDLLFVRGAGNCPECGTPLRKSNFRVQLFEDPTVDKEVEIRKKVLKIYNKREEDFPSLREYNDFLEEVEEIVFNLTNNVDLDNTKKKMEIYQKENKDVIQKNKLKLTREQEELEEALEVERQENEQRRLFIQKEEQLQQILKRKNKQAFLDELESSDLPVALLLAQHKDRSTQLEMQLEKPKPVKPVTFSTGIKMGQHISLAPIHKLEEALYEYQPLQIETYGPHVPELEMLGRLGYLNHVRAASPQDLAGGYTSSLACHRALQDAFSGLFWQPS
ASSAY COMMENT: CDK7 IC50 (ADP-Glo kinase assay)
APPLIED CONDITIONS: ATP 8 μM, CDKtide substrate
RECORDED ENDPOINT: IC50 (nM)

>>> reported("CCc1cnn2c(NCc3cccc(C#N)c3)cc(NC[C@H]3CCNC[C@@H]3O)nc12")
8.9
>>> reported("CCc1cnn2c(NCc3cccc(C#N)c3)c(Cl)c(NC[C@H]3CCNC[C@@H]3O)nc12")
4.2
>>> reported("CCc1cnn2c(NCc3ccccc3F)cc(NC[C@H]3CCNC[C@@H]3O)nc12")
13
>>> reported("O[C@H]1CNCC[C@@H]1CNc1cc(NCc2ccccc2)n2ncc(C3CC3)c2n1")
33

====

Reported fraction unbound at 240 min, 5 µM values for the following compounds.
ASSAY COMMENT: Human Plasma Protein Binding (PPB), RED device
Assay type: in vitro ADME
APPLIED CONDITIONS: human plasma pH 7.4, 37° C., 240 min
Method: Method 4: Human Plasma Protein Binding (PPB) Materials and solutions: • Human Plasma (Sera Labs, […]). • Bupropion hydrochloride (Sigma, B102). • DPBS (Sigma, D8537). • Formic Acid (Sigma, F0507). • RED Device Single Use (Life Technologies, 90006). • Internal standard solution preparation: A solution of bupropion hydrochloride (50 μL, 10 mM in DMSO) was combined with 0.1% formic acid (1 mL) in acetonitrile (1000 mL). […]
RECORDED ENDPOINT: fraction unbound at 240 min, 5 µM

>>> reported("CCc1cnn2c(NCc3ccccc3F)cc(NC[C@H]3CCNC[C@@H]3O)nc12")
0.15
>>> reported("CC(C)c1cnn2c(NCc3ccccc3)cc(NC[C@H]3CCNC[C@@H]3O)nc12 [REF-001, reference compound]")
0.07
>>> reported("O[C@H]1CNCC[C@@H]1CNc1cc(NCc2ccccc2)n2ncc(C3CC3)c2n1")
0.17

====

TARGET SYSTEM: BCRP (Homo sapiens (Human))
Sequence (Q9UNQ0 whole entry): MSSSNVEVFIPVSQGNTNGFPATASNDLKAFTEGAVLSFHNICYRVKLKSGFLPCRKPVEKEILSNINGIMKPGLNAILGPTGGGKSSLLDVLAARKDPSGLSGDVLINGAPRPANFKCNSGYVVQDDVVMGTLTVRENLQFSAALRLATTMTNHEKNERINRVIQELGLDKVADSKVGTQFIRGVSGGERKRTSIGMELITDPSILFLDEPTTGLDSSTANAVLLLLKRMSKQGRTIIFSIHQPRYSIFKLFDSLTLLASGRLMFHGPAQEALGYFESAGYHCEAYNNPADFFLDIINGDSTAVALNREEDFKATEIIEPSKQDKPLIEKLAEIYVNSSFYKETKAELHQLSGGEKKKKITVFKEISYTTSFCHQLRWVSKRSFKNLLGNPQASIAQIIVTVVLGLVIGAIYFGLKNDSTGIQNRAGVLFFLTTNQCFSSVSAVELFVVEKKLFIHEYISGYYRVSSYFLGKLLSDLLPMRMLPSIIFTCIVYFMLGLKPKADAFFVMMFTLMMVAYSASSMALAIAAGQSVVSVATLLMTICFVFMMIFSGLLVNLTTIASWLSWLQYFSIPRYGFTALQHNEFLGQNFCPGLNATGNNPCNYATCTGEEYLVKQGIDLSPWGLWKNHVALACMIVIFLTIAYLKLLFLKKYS
ASSAY COMMENT: MDCK-BCRP Efflux Ratio
Assay type: in vitro ADME
APPLIED CONDITIONS: dog, pH 7.4, HBSS pH 7.4, 37° C.
// reported efflux ratio at 2 h, 10 µM for each item listed
RECORDED ENDPOINT: efflux ratio at 2 h, 10 µM

>>> reported("CCc1cnn2c(NCc3ccccc3F)cc(NC[C@H]3CCNC[C@@H]3O)nc12")
5
>>> reported("O[C@H]1CNCC[C@@H]1CNc1cc(NCc2ccccc2)n2ncc(C3CC3)c2n1")
2

====

TARGET SYSTEM: human CDK2/cycE1 (Homo sapiens (Human), UniProt P24941)
ASSAY COMMENT: CDK2 IC50 (ADP-Glo kinase assay)
Format: biochemical
APPLIED CONDITIONS: ATP 20 μM, histone H1 substrate
IC50 listing for selected compounds.
RECORDED ENDPOINT: IC50

>>> reported("CCc1cnn2c(NCc3cccc(C#N)c3)cc(NC[C@H]3CCNC[C@@H]3O)nc12")
"190 nM"
>>> reported("CCc1cnn2c(NCc3cccc(C#N)c3)c(Cl)c(NC[C@H]3CCNC[C@@H]3O)nc12")
"2400 nM"
>>> reported("O[C@H]1CNCC[C@@H]1CNc1cc(NCc2ccccc2)n2ncc(C3CC3)c2n1")
"770 nM"
>>> reported("CCc1cnn2c(NCc3ccccc3F)cc(NC[C@H]3CCNC[C@@H]3O)nc12")
"640 nM"

These data points were gathered from patent US11857552B2.
